# assay-summary: Carotenoid content in fish flesh of Atlantic salmon by HPLC
# Assay type: in vivo, Salmo salar
# condition-details: Atlantic salmon (Salmo salar), oral, 81.6 mg/kg feed, Synthetic product division, Atlantic salmon, flesh frozen 1 month, average of 20 fish
readout-kind: concentration at 12 months (ng/g)
Respond numerically; units are ng/g and should not be typed.

**Q:** Could you tell me which concentration at 12 months is on file for "CC1=C(/C=C/C(C)=C/C=C/C(C)=C/C=C/C=C(C)/C=C/C=C(C)/C=C/C2=C(C)C(=O)[C@@H](O)CC2(C)C)C(C)(C)C[C@H](O)C1=O" ?
**A:** 6200
